Known GI50 of a selection of compounds
System: COLO 205
measurement description: NCI tumour cell line growth inhibition, 48 h
The source made the active and inactive calls. Cut-off read from the data, not from the text of the source: active = GI50 up to about 1.1 µM and inactive = higher.
measurement label: GI50

>>> experimental_result("Cc1cc2c(SCc3ccccc3Cl)nc(N)nc2nc1C")
"> 100 µM (inactive)"
>>> experimental_result("O=[N+]([O-])/C=C/c1ccc2ccccc2c1")
"2.29 µM (inactive)"
>>> experimental_result("CCC1c2cc3n(c(=O)c2COC1O)Cc1c-3nc2ccccc2c1Cl (stereo not given)")
"> 89.5 µM (inactive)"
>>> experimental_result("CC(C)c1cccc(C(C)C)c1NC(=S)NN=C1C=C(C(C)(C)C)C(=O)C(C(C)(C)C)=C1")
"20.1 µM (inactive)"
>>> experimental_result("N=C(N)NNC(=O)CCCCCCCC(=O)NNC(=N)N")
"18.3 µM (inactive)"
>>> experimental_result("O=C1/C(=C/c2ccc(O)c(O)c2)CC/C1=C\\c1ccc(O)c(O)c1")
"16.2 µM (inactive)"
>>> experimental_result("CC1(C)c2ccccc2N2O[C@@H]3C(=O)N(c4ccccc4)C(=O)[C@@H]3C21c1ccccc1 (stereo not given in full)")
"> 100 µM (inactive)"
>>> experimental_result("Nc1nc(-c2cccs2)cs1")
"88.1 µM (inactive)"
>>> experimental_result("O=C(c1ccc(Cl)c(Cl)c1)N(Cc1cccnc1)C(=S)N(Cc1cccnc1)C(=O)c1ccc(Cl)c(Cl)c1")
"15.6 µM (inactive)"
>>> experimental_result("CC1CCP(=O)(c2ccccc2)c2ccccc21 (stereo not given)")
"51.8 µM (inactive)"
>>> experimental_result("C=CCn1c(S)nnc1C12CC3CC(CC(C3)C1)C2")
"> 100 µM (inactive)"
>>> experimental_result("O=C1CCCCCCCCCCC1CCCCCBr (stereo not given)")
"19.4 µM (inactive)"
>>> experimental_result("Cc1cc(Cl)ccc1OCC(=O)Oc1c(Cl)c(Cl)c(Cl)c(Cl)c1Cl")
"27.8 µM (inactive)"
>>> experimental_result("O=c1[nH]c(Br)nc2c(N3CCCCC3)c[nH]c12")
"> 100 µM (inactive)"
>>> experimental_result("O=C(Nc1sccc1S(=O)(=O)c1ccc(Cl)cc1)c1ccc(F)cc1F")
"> 100 µM (inactive)"
>>> experimental_result("COC(=O)c1cc(O)ccc1NC(=O)c1ccc(O)cc1")
"> 100 µM (inactive)"
>>> experimental_result("CC1(C)C2C=C(CCN3CCOCC3)CC1C2 (stereo not given)")
"> 100 µM (inactive)"
>>> experimental_result("COc1ccccc1C1c2cc3c(cc2OC(N2CCOCC2)C1C)OCO3 (stereo not given)")
"> 10 µM (inactive)"
>>> experimental_result("Cc1cc2c(cc1Br)C1(C)CCC(C)C1(C)O2 (stereo not given)")
"16.3 µM (inactive)"
>>> experimental_result("NCCCCCNOCCCN")
"> 100 µM (inactive)"
>>> experimental_result("S=C(Nc1ccccc1)c1ccc(CN2CCCCC2)s1")
"18.7 µM (inactive)"
>>> experimental_result("CC(=O)OC1CC[C@@]2(C)C(=CC[C@@H]3[C@@H]2CC[C@]2(C)Nc4c(cnn4-c4ccc(F)cc4)C[C@@H]32)C1 (stereo not given in full)")
"5.45 µM (inactive)"
>>> experimental_result("OCCCCn1cc(Cn2ncc3c(SCc4ccccc4)ncnc32)nn1")
"31 µM (inactive)"
>>> experimental_result("O=C(Nc1ccc(Cl)c(Cl)c1)C(=O)C(C1OC(=O)c2ccccc21)[N+](=O)[O-] (stereo not given)")
"> 100 µM (inactive)"
>>> experimental_result("CC(C)C(=O)NS(=O)(=O)c1ccccc1")
"> 100 µM (inactive)"
